System: human MutSbeta (Homo sapiens, UniProt P20585+P43246)
Construct: Msh2(1-934), Gene ID NP_000242.1; Msh3(1-1137), Gene ID J04810.1
Sequence (P43246 whole entry): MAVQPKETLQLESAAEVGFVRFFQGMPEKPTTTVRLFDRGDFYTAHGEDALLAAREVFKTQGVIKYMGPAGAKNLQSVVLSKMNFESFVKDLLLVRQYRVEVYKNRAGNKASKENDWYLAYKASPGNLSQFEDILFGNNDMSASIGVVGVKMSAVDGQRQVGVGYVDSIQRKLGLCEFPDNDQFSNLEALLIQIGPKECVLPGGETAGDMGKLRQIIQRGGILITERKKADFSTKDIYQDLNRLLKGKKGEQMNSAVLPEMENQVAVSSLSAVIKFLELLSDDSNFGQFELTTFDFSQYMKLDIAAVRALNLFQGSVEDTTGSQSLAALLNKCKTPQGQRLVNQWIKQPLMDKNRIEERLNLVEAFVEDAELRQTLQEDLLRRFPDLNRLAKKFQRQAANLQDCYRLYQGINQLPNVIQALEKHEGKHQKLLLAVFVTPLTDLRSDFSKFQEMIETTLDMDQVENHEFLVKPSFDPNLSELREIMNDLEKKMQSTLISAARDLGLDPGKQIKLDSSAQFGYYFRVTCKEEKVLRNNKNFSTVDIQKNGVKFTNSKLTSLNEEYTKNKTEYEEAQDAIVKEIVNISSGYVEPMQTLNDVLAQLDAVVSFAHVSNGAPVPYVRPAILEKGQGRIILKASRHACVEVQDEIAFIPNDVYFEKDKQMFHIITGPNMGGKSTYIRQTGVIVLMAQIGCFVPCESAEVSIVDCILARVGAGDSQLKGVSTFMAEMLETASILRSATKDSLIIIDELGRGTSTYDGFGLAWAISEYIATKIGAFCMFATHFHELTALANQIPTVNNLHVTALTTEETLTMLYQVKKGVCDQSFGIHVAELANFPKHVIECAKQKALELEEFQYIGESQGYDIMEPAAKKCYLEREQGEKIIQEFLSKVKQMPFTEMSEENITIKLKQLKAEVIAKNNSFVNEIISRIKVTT
Sequence (P20585 whole entry): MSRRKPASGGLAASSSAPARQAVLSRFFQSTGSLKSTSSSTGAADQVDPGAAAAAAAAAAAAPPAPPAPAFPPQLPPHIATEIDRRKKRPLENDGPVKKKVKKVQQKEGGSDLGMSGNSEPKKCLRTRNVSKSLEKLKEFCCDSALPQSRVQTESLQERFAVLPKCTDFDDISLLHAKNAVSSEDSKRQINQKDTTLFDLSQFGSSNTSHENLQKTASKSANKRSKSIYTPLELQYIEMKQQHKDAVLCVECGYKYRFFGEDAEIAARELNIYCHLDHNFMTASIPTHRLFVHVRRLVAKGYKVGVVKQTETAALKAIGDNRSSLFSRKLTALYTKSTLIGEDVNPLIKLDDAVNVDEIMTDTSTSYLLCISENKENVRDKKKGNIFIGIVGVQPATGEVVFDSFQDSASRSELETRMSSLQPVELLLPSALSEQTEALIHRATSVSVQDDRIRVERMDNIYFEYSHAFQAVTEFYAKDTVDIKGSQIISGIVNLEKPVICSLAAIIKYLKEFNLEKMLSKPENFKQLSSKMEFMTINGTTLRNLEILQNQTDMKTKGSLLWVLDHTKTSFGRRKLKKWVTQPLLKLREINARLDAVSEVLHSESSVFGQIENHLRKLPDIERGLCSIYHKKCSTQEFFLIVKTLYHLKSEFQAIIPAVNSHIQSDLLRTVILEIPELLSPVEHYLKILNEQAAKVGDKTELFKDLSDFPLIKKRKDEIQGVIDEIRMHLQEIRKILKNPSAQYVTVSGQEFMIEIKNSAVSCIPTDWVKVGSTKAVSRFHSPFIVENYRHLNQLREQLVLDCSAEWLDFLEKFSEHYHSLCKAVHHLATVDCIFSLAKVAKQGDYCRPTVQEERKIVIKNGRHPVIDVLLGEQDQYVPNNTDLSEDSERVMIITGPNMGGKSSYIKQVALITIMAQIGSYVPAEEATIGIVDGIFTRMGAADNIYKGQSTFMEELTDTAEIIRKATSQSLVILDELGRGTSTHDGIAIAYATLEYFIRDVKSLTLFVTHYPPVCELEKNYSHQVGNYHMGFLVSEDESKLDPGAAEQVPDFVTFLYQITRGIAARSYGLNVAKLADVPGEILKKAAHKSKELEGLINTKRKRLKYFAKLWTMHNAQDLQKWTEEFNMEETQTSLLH
Assay protocol: P33 SPA 1.1
Type: biochemical
Settings: Table 5A; enzyme first added to compounds, then ATP
Protocol: P33 SPA: Enzyme human MutSbeta (Msh2(1-934), Gene ID NP_000242.1, Msh3(1-1137), Gene ID J04810.1) and 22 bp biotin-labeled DNA containing a GT-mismatch (purchased from Curia Global, TOP 5′-[…]-3′; BOT 3′-AGTAGCTAGGC - - - CGAAGTCTACC-5′-Biotin) were pre-incubated at equimolar concentration for 15 min at room temperature (“RT”) in assay buffer (25 mM HEPES pH=7.5, 150 mM KCl, 2 mM MgCl2, 2 mM GSH, 0.01% Tween-20). […]
# Lookup of reported pIC50 keyed by entry
// pIC50 is dimensionless: -log10 of concentration (M)

- Smiles: "Cc1cccc(Nc2nc(N3CCN(C)CC3)nc3nccnc23)c1C"
  System: "human MutSbeta (Homo sapiens, UniProt P20585+P43246)"
  pIC50: 3.80
- Smiles: "Cc1ccc(Nc2nc(N3CCN(C)CC3)nc3nccnc23)cc1C(N)=O"
  System: "human MutSbeta (Homo sapiens, UniProt P20585+P43246)"
  pIC50: 4.42
- Smiles: "CN1CCN(c2nc(Nc3cccc(Cl)c3)c3nccnc3n2)CC1"
  System: "human MutSbeta (Homo sapiens, UniProt P20585+P43246)"
  pIC50: 4.36
- Smiles: "Cc1ccc(Oc2nc(N3CCN(C)CC3)nc3nccnc23)cc1C"
  System: "human MutSbeta (Homo sapiens, UniProt P20585+P43246)"
  pIC50: 3.93
- Smiles: "CC(=O)Nc1cccc(CNc2nc(N3CCN(C)CC3)nc3nccnc23)c1"
  System: "human MutSbeta (Homo sapiens, UniProt P20585+P43246)"
  pIC50: 3.98

// lookup pIC50 for Cc1ccc(CNc2nc(N3CCCN(C)CC3)nc3nccnc23)cc1C
4.26

Try this compound next: COc1ccc(Nc2nc(N3CCN(C)CC3)nc3nccnc23)cc1Cl
4.64

Try this compound next: CN1CCN(c2nc(Nc3cccc(F)c3)c3nccnc3n2)CC1
4.37

* * *

# Lookup of reported pIC50 keyed by entry
System: human MutSbeta (Homo sapiens, UniProt P20585+P43246)
Construct: Msh2(1-934), Gene ID NP_000242.1; Msh3(1-1137), Gene ID J04810.1
Assay protocol: ADP Glo assay 2.1
Assay type: biochemical
Settings: 10 μM ATP, 7 nM enzyme; buffer with 5 mM GSH, 0.2% Ovalbumin
// pIC50 is dimensionless: -log10 of concentration (M)

In the examples that follow, each entry is paired with its recorded pIC50.
- Compound: "CN1CCN(c2nc(Nc3cccc(C4CC4C(=O)O)c3)c3nccnc3n2)CC1 (single isomer, unassigned) [Compound 48]"
  pIC50: 4.89
- Compound: "Cc1ccc(Nc2nc(N3CCN(C)CC3)nc3nccnc23)cc1C(N)=O"
  pIC50: 4.26
- Compound: "CCN1CCN(c2nc(Nc3ccc(F)c(C)c3)c3nccnc3n2)CC1"
  pIC50: 4.49
- Compound: "Cc1ccc(Nc2nc(N3CCN(C)CC3)nc3nccnc23)cc1C"
  pIC50: 4.17
- Compound: "CN1CCN(c2nc(Nc3cccc(Cl)c3)c3nccnc3n2)CC1"
  pIC50: 4.46
- Compound: "Cc1cc(CNc2nc(N3CCN(C)CC3)nc3nccnc23)ccc1F"
  pIC50: 4.54
- Compound: "COc1ccc(Nc2nc(N3CCN(C)CC3)nc3nccnc23)cc1Cl"
  pIC50: 4.64
- Compound: "Cc1ccc(Nc2nc(N3CCN(C)CC3)nc3nccnc23)cc1Cl"
  pIC50: 3.86

// lookup pIC50 for Cc1ccc(Nc2nc(N3CCN(C)[C@@H](C)C3)nc3nccnc23)cc1C
4.72

Try this compound next: Cc1ccc(CNc2nc(N3CCN(C)CC3)nc3nccnc23)cc1C
4.66

Try this compound next: CN1CCN(c2nc(Nc3cccc(C4CC4C(=O)O)c3)c3nccnc3n2)CC1 (single isomer, unassigned) [Compound 47]
4.26

Try this compound next: Cc1cnc2nc(N3CCN(C)CC3)nc(Nc3ccc(C)c(C)c3)c2n1
4.89

Try this compound next: Cc1cc(Nc2nc(N3CCN(C)CC3)nc3nccnc23)ccc1C(N)=O
4.55

* * *

System: human MutSbeta (Homo sapiens, UniProt P20585+P43246)
Construct: Msh2(1-934), Gene ID NP_000242.1; Msh3(1-1137), Gene ID J04810.1
Assay protocol: P33 SPA
Type: biochemical
Settings: ATP added to compounds first, then enzyme with DNA; 2 μM ATP, 7 nM enzyme, 60 min 37° C.
Mark each entry YES if its IC50 sits below 30 µM, and NO for all others.

- Smiles: "Cc1ccc(Nc2nc(N3CCN(C)CC3)nc3nccnc23)cc1Cl"
  Label value: "YES"
- Smiles: "CCN1CCN(c2nc(Nc3ccc(Cl)cc3)c3nccnc3n2)CC1"
  Label value: "YES"
- Smiles: "CCN1CCN(c2nc(Nc3ccc(F)c(F)c3)c3nccnc3n2)CC1"
  Label value: "NO"
- Smiles: "CCN1CCN(c2nc(Nc3ccc(F)c(C)c3)c3nccnc3n2)CC1"
  Label value: "YES"
- Smiles: "Cc1ccc(Nc2nc(N3CCN(C)CC3)nc3nccnc23)cc1C"
  Label value: "YES"
- Smiles: "CN1CCN(c2nc(NCc3ccccc3)c3nccnc3n2)CC1"
  Label value: "NO"

Now consider a different compound.
In the record for Cc1cccc(Nc2nc(N3CCN(C)CC3)nc3nccnc23)c1 , is IC50 less than 30 µM?
YES

* * *

System: human MutSbeta (Homo sapiens, UniProt P20585+P43246)
Construct: Msh2(1-934), Gene ID NP_000242.1; Msh3(1-1137), Gene ID J04810.1
Assay protocol: P33 SPA 1.1
Format: biochemical
Settings: Table 5A; enzyme first added to compounds, then ATP
Reported property: pIC50
// pIC50 is dimensionless: -log10 of concentration (M)

In the examples that follow, each entry is paired with its recorded pIC50.
- Smiles: "Cc1cc(CNc2nc(N3CCCN(C)CC3)nc3nccnc23)ccc1F"
  pIC50: 3.92
- Smiles: "CCC(=O)Nc1cccc(Nc2nc(N3CCCN(C)CC3)nc3nccnc23)c1"
  pIC50: 4.10
- Smiles: "Cc1cc(CNc2nc(N3CCN(C(C)C)CC3)nc3nccnc23)ccc1F"
  pIC50: 4.23
- Smiles: "CN1CCN(c2nc(NCc3ccccc3)c3nccnc3n2)CC1"
  pIC50: 4.35

// lookup pIC50 for CCN1CCN(c2nc(Nc3ccc(Cl)cc3)c3nccnc3n2)CC1
4.39

* * *

System: human MutSbeta (Homo sapiens, UniProt P20585+P43246)
Construct: Msh2(1-934), Gene ID NP_000242.1; Msh3(1-1137), Gene ID J04810.1
Assay protocol: P33 SPA 1.1
Type: biochemical
Settings: Table 5B; assay repeated under similar conditions
# Lookup of reported IC50 keyed by entry
Supply the numeric figure in µM, leaving out any unit text.

In the examples that follow, each entry is paired with its recorded IC50.
- Molecule: "Cc1ccc(Nc2nc(N3CCN(C)CC3)nc3nccnc23)cc1C(N)=O"
  Unit string: "µM"
  IC50: 84
- Molecule: "COc1cccc(Nc2nc(N3CCN(C)CC3)nc3nccnc23)c1"
  Unit string: "µM"
  IC50: 61

// lookup IC50 for CN1CCN(c2nc(Nc3cccc(C4CC4C(=O)O)c3)c3nccnc3n2)CC1 (single isomer, unassigned) [Compound 47]
56

Try this molecule next: Cc1cc(CNc2nc(N3CCCN(C)CC3)nc3nccnc23)ccc1F
61

Try this molecule next: CN1CCN(c2nc(Nc3cccc(C4CC4C(=O)O)c3)c3nccnc3n2)CC1 (single isomer, unassigned) [Compound 48]
9

Try this molecule next: CN1CCN(c2nc(NCc3cccc(S(N)(=O)=O)c3)c3nccnc3n2)CC1
71

Try this molecule next: Cc1ccc(CNc2nc(N3CCN(C)CC3)nc3nccnc23)cc1C
18

Try this molecule next: CN1CCN(c2nc(Nc3cccc(F)c3)c3nccnc3n2)CC1
90

Try this molecule next: CN1CCN(c2nc(Nc3cccc(Cl)c3)c3nccnc3n2)CC1
34

* * *

Assay protocol: P33 SPA counter assay (absence of enzyme)
Settings: interference with detection system
Procedure: P33 SPA counter assay: This assay was used in the absence of enzyme to determine whether the test compound interferes with the detection system. […] Then, 40 μL of 7 M CsCl and 0.1 M citrate was added per well and incubated for 1 h at room temperature before measuring on the MicroBeta (top read mode, 1 min per well). […]
Reported property: IC50

- Smiles: "CCN1CCN(c2nc(Nc3ccc(F)c(F)c3)c3nccnc3n2)CC1"
  Reported measurement: "> 200 µM"
- Smiles: "Cc1ccc(Nc2nc(N3CCN(C)CC3)nc3nccnc23)cc1Cl"
  Reported measurement: "> 200 µM"
- Smiles: "CCN1CCN(c2nc(Nc3ccc(Cl)cc3)c3nccnc3n2)CC1"
  Reported measurement: "> 200 µM"
- Smiles: "Cc1cccc(Nc2nc(N3CCN(C)CC3)nc3nccnc23)c1"
  Reported measurement: "> 200 µM"

// lookup IC50 for CN1CCN(c2nc(NCc3ccccc3)c3nccnc3n2)CC1
> 200 µM

Try this compound next: Cc1ccc(Nc2nc(N3CCN(C)CC3)nc3nccnc23)cc1C
> 200 µM
